From: ChEMBL document CHEMBL1145796

TEST DESCRIPTION: Dose required for 95% suppression of the twitch response at the extensor digitorum in male Rhesus monkey.
Type: functional, Cercopithecidae
CONDITION PARAMETERS: Cercopithecidae; read-out: ED95
Give log10 ED95 for every item shown.
Heads up: the numbers are on a log10 scale; they represent ED95 in mg/kg.

Quick one: log10 ED95 for COc1ccc([C@@H]2c3cc(OC)c(OC)cc3CC[N@@+]2(C)CCCOC(=O)CC(F)(F)C(=O)OCCC[N@+]2(C)CCc3cc(OC)c(OC)cc3[C@H]2Cc2cc(OC)c(OC)c(OC)c2)cc1OC.[Cl-].[Cl-] ?
-1.22

Same read-out for COc1cc2c(cc1OC)C(Cc1cc(OC)c(OC)c(OC)c1)[N@+](C)(CCCOC(=O)/C(Cl)=C/C(=O)OCCC[N@+]1(C)CCc3cc(OC)c(OC)cc3[C@H]1Cc1cc(OC)c(OC)c(OC)c1)CC2.[Cl-].[Cl-] (some centres undefined) ?
-1.10

Now try COc1ccc([C@H]2c3cc(OC)c(OC)cc3CC[N@+]2(C)CCCOC(=O)/C=C(\Cl)C(=O)OCCC[N@+]2(C)CCc3cc(OC)c(OC)cc3[C@H]2Cc2cc(OC)c(OC)c(OC)c2)cc1.[Cl-].[Cl-] .
-0.87

Consider next the molecule COc1cc2c(cc1OC)[C@@H](c1cc(OC)c(OC)c(OC)c1)[N@+](C)(CCCOC(=O)/C=C(\Cl)C(=O)OCCC[N@+]1(C)CCc3cc(OC)c(OC)c(OC)c3[C@H]1Cc1cc(OC)c(OC)c(OC)c1)CC2 in the same way.
-1.17

Likewise for COc1cc2c(cc1OC)[C@H](c1cc(OC)c(OC)c(OC)c1)[N@@+](C)(CCCOC(=O)CC(F)(F)C(=O)OCCC[N@+]1(C)CCc3cc(OC)c(OC)c(OC)c3[C@H]1Cc1cc(OC)c(OC)c(OC)c1)CC2.[Cl-].[Cl-] ?
-1.40

Okay, and COc1cc2c(cc1OC)[C@H](c1cc(OC)c(OC)c(OC)c1)[N@@+](C)(CCCOC(=O)CC(F)(F)C(=O)OCCC[N@+]1(C)CCc3cc(OC)c(OC)cc3[C@H]1Cc1cc(OC)c(OC)c(OC)c1)CC2.[Cl-].[Cl-] ?
-1.25

Input COc1cc2c(cc1OC)[C@H](c1cc(OC)c(OC)c(OC)c1)[N@@+](C)(CCCOC(=O)/C=C(\Cl)C(=O)OCCC[N@+]13CCc4cc(OC)c(OC)c(OC)c4[C@H]1Cc1cc(OC)c(OC)c(OC)c1C3)CC2.[Cl-].[Cl-]
-0.10

Repeat with COc1cc2c(cc1OC)[C@H](c1cc(OC)c(OC)c(OC)c1)[N@@+](C)(CCCOC(=O)CCCCCCC(=O)OCCC[N@+]1(C)CCc3cc(OC)c(OC)cc3[C@H]1Cc1cc(OC)c(OC)c(OC)c1)CC2.[Cl-].[Cl-]
-1.17

Next molecule up: COc1cc2c(cc1OC)[C@H](c1cc(OC)c(OC)c(OC)c1)[N@@+](C)(CCCOC(=O)CCCCCCCC(=O)OCCC[N@+]1(C)CCc3cc(OC)c(OC)cc3[C@H]1Cc1cc(OC)c(OC)c(OC)c1)CC2.[Cl-].[Cl-]
-0.77
